Biological target: Sodium-dependent dopamine transporter (Homo sapiens, UniProt Q01959)
Sequence (Q01959 whole entry): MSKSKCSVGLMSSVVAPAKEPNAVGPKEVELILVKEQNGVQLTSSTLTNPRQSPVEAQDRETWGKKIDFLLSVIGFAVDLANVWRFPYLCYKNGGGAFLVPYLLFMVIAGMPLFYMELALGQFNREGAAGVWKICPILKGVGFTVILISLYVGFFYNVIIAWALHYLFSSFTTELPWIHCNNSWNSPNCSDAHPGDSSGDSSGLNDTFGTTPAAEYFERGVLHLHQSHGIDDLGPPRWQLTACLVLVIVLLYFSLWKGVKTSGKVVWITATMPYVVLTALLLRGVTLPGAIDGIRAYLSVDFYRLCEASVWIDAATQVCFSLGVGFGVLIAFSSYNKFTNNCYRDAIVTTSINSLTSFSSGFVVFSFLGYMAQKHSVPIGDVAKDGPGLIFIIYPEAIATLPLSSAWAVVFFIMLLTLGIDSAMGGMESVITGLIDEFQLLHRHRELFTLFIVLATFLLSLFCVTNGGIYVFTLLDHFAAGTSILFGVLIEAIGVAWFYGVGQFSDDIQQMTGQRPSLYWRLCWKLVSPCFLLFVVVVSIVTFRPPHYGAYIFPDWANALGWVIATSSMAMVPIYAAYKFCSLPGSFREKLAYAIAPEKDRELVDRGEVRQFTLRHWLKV
Assay: Displacement of [3H]WIN35428 from human cloned DAT receptor expressed in human HEK293 cells
Format: cell-based
Details: read-out: pKi (converted)
Threshold-based label: Ki under 90 nM gives met, Ki not under 90 nM gives not met.

1. CN1[C@H]2CC[C@@H]1[C@@H](C(=O)OCCc1ccccc1)[C@@H](c1ccc(Cl)c(Cl)c1)C2 = met
2. COC(=O)[C@H]1[C@@H](c2ccc(I)cc2)C[C@@H]2CC[C@H]1N2Cc1ccccc1C = not met
3. COC(=O)[C@H]1[C@@H](c2ccc(F)cc2)C[C@@H]2CC[C@H]1N2CCCF = met

Does the reported Ki of the following compound sit strictly below 90 nM? CCCCc1ccc([C@H]2C[C@@H]3CC[C@H]([C@H]2C(=O)OC)N3C)cc1I
not met

---

Target: Sodium-dependent dopamine transporter (Rattus norvegicus, UniProt P23977)
Sequence (P23977 whole entry): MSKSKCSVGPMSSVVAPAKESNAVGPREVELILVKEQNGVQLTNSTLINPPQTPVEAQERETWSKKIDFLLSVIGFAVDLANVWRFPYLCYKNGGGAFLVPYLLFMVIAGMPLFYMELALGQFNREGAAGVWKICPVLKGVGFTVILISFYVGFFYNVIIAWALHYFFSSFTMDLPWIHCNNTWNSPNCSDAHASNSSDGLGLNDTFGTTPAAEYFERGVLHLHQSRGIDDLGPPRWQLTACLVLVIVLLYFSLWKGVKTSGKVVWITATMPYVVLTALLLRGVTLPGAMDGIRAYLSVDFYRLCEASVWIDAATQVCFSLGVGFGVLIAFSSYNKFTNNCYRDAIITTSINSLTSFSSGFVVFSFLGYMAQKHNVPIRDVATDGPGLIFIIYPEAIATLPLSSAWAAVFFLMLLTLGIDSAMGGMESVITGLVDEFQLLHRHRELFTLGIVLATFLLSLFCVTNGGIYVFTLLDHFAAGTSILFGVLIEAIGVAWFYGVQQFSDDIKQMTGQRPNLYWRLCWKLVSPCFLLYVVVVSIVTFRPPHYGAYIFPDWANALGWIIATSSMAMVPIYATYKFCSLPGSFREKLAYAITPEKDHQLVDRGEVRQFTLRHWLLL
Assay: Displacement of [3H]WIN35428 from rat cloned striatal DAT receptor
Experimental readout: pIC50
Quick note: pIC50 means taking -log10 of the concentration in moles per liter.

1. CN1[C@H]2CC[C@@H]1[C@@H](c1nnc(-c3ccccc3)o1)[C@@H](c1ccc(Cl)cc1)C2 = 5.61

Suppose we examine the compound COC(=O)[C@H]1[C@@H](c2ccccc2)C[C@@H]2CC[C@H]1N2CC#CCF ; what pIC50 value has been reported?
8.52

Item: CCOC(=O)[C@H]1[C@@H](c2ccc(C)cc2)C[C@@H]2CC[C@H]1N2Cc1ccc(F)cc1
7.53

---

Biological target: Sodium-dependent dopamine transporter (Homo sapiens, UniProt Q01959)
Experiment: Displacement of [3H]WIN35428 from human cloned DAT receptor expressed in human HEK293 cells
Type: cell-based
Settings: read-out: pKi (converted)
Experimental readout: Ki (nM)
The response must be a number in nM with no trailing unit.

Use the examples below as a reference point.
1) CN1[C@H]2CC[C@@H]1[C@@H](C(=O)OCCc1ccc(N=[N+]=[N-])c(I)c1)[C@@H](c1ccc(Cl)cc1)C2 = 14.1
2) CN1[C@@H]2CC[C@H]1[C@H](C(=O)OCc1ccccc1)[C@@H](OC(c1ccc(F)cc1)c1ccc(F)cc1)C2 = 49
3) COC(=O)[C@H]1[C@@H](c2ccc(C(C)C)c(I)c2)C[C@@H]2CC[C@H]1N2C = 501

Quick check: Ki of COC(=O)[C@H]1[C@@H](c2ccc(F)cc2)C[C@@H]2CC[C@H]1N2CCF ?
70.8

Next entry: C/C=C/CN1[C@H]2CC[C@@H]1[C@@H](C(=O)OC)[C@@H](c1ccc(I)cc1)C2
15.1

Same question, CCc1ccc([C@H]2C[C@@H]3CC[C@H]([C@H]2C(=O)OC)N3C)cc1 this time
501

Query COC(=O)[C@H]1[C@@H](c2ccc(I)cc2)C[C@@H]2CC[C@H]1N2Cc1ccccc1 next
41.7

Next compound up: CCc1ccc([C@H]2C[C@@H]3CC[C@H]([C@H]2C(=O)OC)N3C)cc1I
339

---

Target: Sodium-dependent dopamine transporter (Rattus norvegicus, UniProt P23977)
Assay: Displacement of [3H]GBR-12935 from rat cloned striatal DAT receptor
Property: pIC50; scope: individual compounds
Reminder that pIC50 is minus the log10 of a molar concentration.

1. COC(=O)[C@H]1[C@@H](c2ccc(I)cc2)C[C@@H]2[C@H](C)C[C@H]1N2C = 6.10

Now consider the entry below.
For Sodium-dependent dopamine transporter (Rattus norvegicus, UniProt P23977), provide pIC50 of COC(=O)[C@H]1[C@@H](c2ccc(I)cc2)C[C@H]2N[C@@H]1C[C@H]2C please.
5.61
